- Tested on: SK-MEL-28 melanoma
- Method: NCI-60 one-dose screen, 48 h (100 = growth as untreated, 0 = no growth, -100 = all killed)
- Measurement Conditions: 10 µM unless noted
About 83,000 compounds went through this panel and 20% of them were active in at least one assay; those are over-represented in the sample as a whole.
Would you mind labelling by growth? At or over 50% is True, under is False.

| Compound | Assigned Category |
| --- | --- |
| COc1cccc2cc(-c3cc4ccccc4[nH]3)/c(=N\NC(=O)c3ccc(Cl)cc3)oc12 | False |
| Cn1ccnc1C(=O)/C=C/c1ccc(NC(=O)c2ccc(F)cc2)cc1 | True |
| Nc1ccccc1NC(=O)c1ccc(NC(=O)C/C=C/c2cccnc2)cc1 | False |
| C#Cc1nc(C(=O)NCCC(=O)Nc2ccc(NC(=O)c3ccc(/C=C/C(=O)c4nccn4C)cc3)cc2)cs1 | True |
| N#Cc1c(Nc2ccccc2)nn2c(-c3ccc([N+](=O)[O-])cc3)ccnc12 | True |

Inquiry: Form field: growth at least 50%? Entry: NS(=O)(=O)c1ccc(Nc2nc(N/N=C/c3c[nH]c4ccccc34)nc(Nc3ccccc3)n2)cc1
Reply text: False

Inquiry: Form field: growth at least 50%? Entry: COc1c(N2CC3CCCNC3C2)c(F)cc2c(=O)c(C(=O)N/N=C/c3c[nH]c4ccccc34)cn(C3CC3)c12 (centres undefined)
Reply text: True

Inquiry: Form field: growth at least 50%? Entry: CC(=O)N1N=C(c2cccc(-n3cccc3)c2)CC1c1cccc(F)c1 (centres undefined)
Reply text: True

###

- Tested on: SK-MEL-28 melanoma
- Method: NCI-60 one-dose screen, 48 h
- Measurement Conditions: 10 µM unless noted
- Protocol: Growth inhibition of the SK-MEL-28 human tumor cell line is measured as a screen for anti-cancer activity. Cells are grown in 96 well plates and exposed to the test compound for 48 hours. Compounds are tested at a single concentration, which is 10^-5 M for most compounds. The reported endpoint is percent growth (GI% or GIPRCNT), where numbers from 0 - 100% represent growth inhibition, and numbers from -100% - 0 represent cell death. For example, a value of 40 represents 60% growth inhibition. […]
Compounds without any hit were thinned out: in the full panel of roughly 83,000, 20% have a hit. The source made the active and inactive calls. Rule for the calls: active = growth percent below 10; inactive = the rest.
Could you please pick one outcome from this set? yes for active, no for inactive

| Compound | Assigned Category |
| --- | --- |
| COC(=O)C1(C)CCC[C@]2(C)[C@H]3C[C@H]4C(C(C)C)=C[C@]3(CC[C@@H]12)[C@H]1[C@@H]4[C@@H](OC(=O)c2ccco2)CC[C@@H]1OC(=O)c1ccco1 (some centres not stated) | no |

Inquiry: What classification did Cn1cc(-c2nnc(N)nc2-c2c[nH]c3ccc(F)cc23)c2cc(F)ccc21 end up with in this test?
Reply text: no

Inquiry: What classification did C=CCn1c(SCC(=O)Nc2ccc(C(=O)/C=C/c3ccc(Cl)cc3)cc2)nnc1-c1c[nH]c2ccccc12 end up with in this test?
Reply text: no

Inquiry: What classification did CS(=O)(=O)Nc1cc(-c2ccc3ncc(C#N)c(NCc4ccccc4)c3c2)cnc1Cl end up with in this test?
Reply text: yes

Inquiry: What classification did CC[C@@H](CO)Nc1ccc2ncc(C#Cc3cncc(C(=O)Nc4ccc(CN5CCN(C)CC5)c(C(F)(F)F)c4)c3)n2n1 end up with in this test?
Reply text: yes

Inquiry: What classification did CC(C)C[C@@H]1N[C@@]2(C(=O)Nc3ccccc32)[C@@H](c2ccc(F)cc2)[C@@H]1C(=O)c1ccc(O)cc1 end up with in this test?
Reply text: no

Inquiry: What classification did CC(C)(C)c1ccc(C(=O)Nc2sc3c(c2C(N)=O)CCC(O)C3)cc1 (configuration not stated) end up with in this test?
Reply text: no

Inquiry: What classification did O=C(Cn1cc(-c2ccccc2)nn1)Nc1nc(-c2ccc(Cl)cc2)cs1 end up with in this test?
Reply text: no

Inquiry: What classification did CCNC(=O)Oc1ccc(/C(=C(/C)c2ccccc2)c2ccc(OCCN3CCCCCC3)cc2)cc1 end up with in this test?
Reply text: yes

Inquiry: What classification did CCc1nn2c(C)cc(C)nc2c1Cc1ccc(/C=C/CN2CCN(CCOCCOCCN3CCN(C/C=C/c4ccc(Cc5c(CC)nn6c(C)cc(C)nc56)cc4)CC3)CC2)cc1 end up with in this test?
Reply text: yes

Inquiry: What classification did Nc1nc(N)c2c(n1)NC(c1ccc(C(F)(F)F)cc1)CC(c1ccc(Nc3nc(NCCO)nc(N4CCOCC4)n3)cc1)=N2 (configuration not stated) end up with in this test?
Reply text: no

Inquiry: What classification did COc1ccc([C@H]2[C@H](O)C(=O)N2c2cc(OC)c(OC)c(OC)c2)cc1F end up with in this test?
Reply text: no

Inquiry: What classification did O=C(CNc1nc(-c2cccc([N+](=O)[O-])c2)cs1)Nc1cccc(Cl)c1 end up with in this test?
Reply text: no

Inquiry: What classification did COc1cc2nc(Cl)nc(Nc3cccc(C4=Nc5c(N)nc(N)nc5NC(c5ccc(Cl)cc5)C4)c3)c2cc1OC (configuration not stated) end up with in this test?
Reply text: no

Inquiry: What classification did NC(N)=Nc1ccc(Nc2cccc(Nc3ccc(Cl)c(C(F)(F)F)c3)c2)cn1 end up with in this test?
Reply text: no

Inquiry: What classification did Nc1nc(Nc2ccccc2SSc2ccccc2Nc2nc(N)nc(-c3cccc(Br)c3)n2)nc(-c2cccc(Br)c2)n1 end up with in this test?
Reply text: no

Inquiry: What classification did CC(c1ccccc1)N1CSc2nc3ncncc3n2C1 (configuration not stated) end up with in this test?
Reply text: no
